Biological target: Aspartate--tRNA(Asp/Asn) ligase (Mycobacterium tuberculosis (strain ATCC 25618 / H37Rv)) (UniProt P9WFW3); also: in the data most compounds retested in dose-response had high values
Sequence (P9WFW3 whole entry): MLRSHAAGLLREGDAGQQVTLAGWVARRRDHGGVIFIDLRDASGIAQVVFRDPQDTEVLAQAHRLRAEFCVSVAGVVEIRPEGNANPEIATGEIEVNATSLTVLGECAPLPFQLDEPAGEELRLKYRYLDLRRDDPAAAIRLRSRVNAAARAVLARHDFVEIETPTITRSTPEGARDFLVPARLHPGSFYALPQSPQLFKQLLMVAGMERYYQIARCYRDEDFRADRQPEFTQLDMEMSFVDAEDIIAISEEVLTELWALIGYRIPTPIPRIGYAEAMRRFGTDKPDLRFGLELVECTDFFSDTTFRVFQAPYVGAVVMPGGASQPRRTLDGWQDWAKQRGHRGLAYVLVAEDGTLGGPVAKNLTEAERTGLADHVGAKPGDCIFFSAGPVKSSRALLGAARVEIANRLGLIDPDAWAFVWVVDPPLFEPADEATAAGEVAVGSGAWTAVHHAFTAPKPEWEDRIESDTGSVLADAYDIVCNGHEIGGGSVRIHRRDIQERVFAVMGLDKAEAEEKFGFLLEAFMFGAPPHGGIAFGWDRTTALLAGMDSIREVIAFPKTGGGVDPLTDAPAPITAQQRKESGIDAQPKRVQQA
Assay: Assay for Asp RNA synthetase-1 from Mycobacterium tuberculosis
Format: functional
Design: scale not given: direction of the effect not stated beside the values
Conditions: 30 µM
READOUT_TYPE: Percent Effect (%)
Your answer should be a plain number; it is taken to be in %.

Before answering, review these 3 worked examples.
COMPOUND	UNIT	Percent Effect
CCc1nc(C2CCCN2C(=O)c2nc(C)n3ccccc23)no1 (centres undefined)	%	-1.96
CC(C)C(NC(=O)Cn1ccc(=O)n(C)c1=O)c1ccc(F)cc1 (centres undefined)	%	4.7
CCN(CC(=O)NC(C)C)S(=O)(=O)N1CCCCCC1	%	-4.33

Form field: reported Percent Effect of `O=C(NC1=NCCCN1c1ccc(Cl)cc1)c1cccc(Cl)c1`
8.32

---

Biological target: Shiga toxin 2 (Escherichia coli O157:H7) (UniProt P09385+P09386)
Assay: E. coli 0.157:H7 Shiga Toxin SOP - stx2 screening assay
Type: functional
Set-up: scale not given: direction of the effect not stated beside the values
Details: 30 µM
Below, each of the compounds is paired with its reported Percent Effect value.
Your answer should be a plain number; it is taken to be in %.

Before answering, review these 8 worked examples.
COMPOUND	TARGET	RECORDED_RESULT
Cc1ccc(CN2CCC(F)(F)C3(CCN(c4cnccn4)C3)C2)o1 (configuration not stated)	Shiga toxin 2 (Escherichia coli O157:H7) (UniProt P09385+P09386)	-6.62
CC1CCN(C(=O)CN(Cc2ccco2)C2CC2)CC1	Shiga toxin 2 (Escherichia coli O157:H7) (UniProt P09385+P09386)	-5.22
CN(C)c1ncnc2c1CCN(CC1CCCC1)CC2	Shiga toxin 2 (Escherichia coli O157:H7) (UniProt P09385+P09386)	-5.38
CC(C#N)CSc1ccccc1NCC(=O)NCc1ccccc1 (configuration not stated)	Shiga toxin 2 (Escherichia coli O157:H7) (UniProt P09385+P09386)	21.2
CCN(C)c1ncnc2c1CCN(Cc1ccoc1)CC2	Shiga toxin 2 (Escherichia coli O157:H7) (UniProt P09385+P09386)	-28.5
O=C(c1cccc(OC2CCCC2)c1)N1CCCC(n2cncn2)C1 (configuration not stated)	Shiga toxin 2 (Escherichia coli O157:H7) (UniProt P09385+P09386)	16.8
CC(=O)N1CCN(S(=O)(=O)c2ccc(C)c(F)c2)CC1	Shiga toxin 2 (Escherichia coli O157:H7) (UniProt P09385+P09386)	-12.2
COCCN1CCN(CCCS(C)(=O)=O)CC1C (configuration not stated)	Shiga toxin 2 (Escherichia coli O157:H7) (UniProt P09385+P09386)	-23.7

Form field: reported Percent Effect of `COc1ccccc1CN(C)C(=O)c1cc(CN2CCC(O)CC2)on1`
-16.2

Next compound: CC(C)C(=O)NCC(=O)N(C)C1CCCN(C2Cc3ccccc3C2)C1 (configuration not stated)
0.34

Next compound: `CCN(CC(=O)NC(C)C)S(=O)(=O)N1CCCCCC1`
-4.09

Next compound: FC1(F)CCN(Cc2ccccn2)CC12CCN(c1cccnc1)C2 (configuration not stated)
-6.96

Next compound: Cc1nc(CN2CCCN(C(=O)C(C)OCC3CC3)CC2)cs1 (configuration not stated)
-12.8

Next compound: `Cc1noc(C)c1C(=O)N1C[C@H]2CCC[C@@]2(COc2ccccn2)C1`
2.11

Next compound: CCc1n[nH]c(C2CN(C(=O)c3ncoc3C(C)C)CCO2)n1 (configuration not stated)
-12.1

Next compound: `COc1cc2cc(C(=O)O)n(C)c2c(OC)c1OC`
1.12

Next compound: Cc1nc(C)n(CC2CCCN(CCC(=O)N3CCCCC3)C2)n1 (configuration not stated)
13.6

Next compound: `CS(=O)(=O)N1CCC(Oc2ccc(C(=O)N3CCSCC3)cc2Cl)CC1`
11.9

Next compound: `O=C(c1cccnc1-n1cccn1)N1CCN(CC2CC2)CC1`
7.9

Next compound: CCc1nc2n(n1)CC(Nc1cc(C)nc3ncnn13)CC2 (configuration not stated)
2.96

Next compound: `COc1cc2cc(C(=O)O)n(C)c2cc1OC`
-0.0542

Next compound: Cc1nnc(NC(=O)NC2CCOc3ccccc32)s1 (configuration not stated)
-1.42

Next compound: Cc1cc(=O)[nH]c(NCCNC(=O)C(c2ccc(F)cc2)N(C)C)n1 (configuration not stated)
-65.1

Next compound: O=C(NCCNc1ncccn1)C1CC(=O)N(CC(F)(F)F)C1 (configuration not stated)
20.8

Next compound: CCc1nccn1C1CCCN(C(=O)c2ccc3[nH]cnc3c2)C1 (configuration not stated)
11.5

Next compound: COCCOc1ccccc1C(=O)N1CCCCC1c1nccs1 (configuration not stated)
-6.36

Next compound: `c1sc(C2CCCC2)nc1CN1CCn2c(nnc2C2CC2)C1`
27.9

Next compound: `Cc1cc(C(=O)N2C[C@@H]3[C@@H](C2)OCC(=O)N3CC2CC2)no1`
-55.2

Next compound: `CS(=O)(=O)c1ccc(OCCNCc2cccc(F)c2)cc1`
-38.6

Next compound: CCc1noc(C)c1C(=O)N1CCCC1Cn1nc(C)cc1C (configuration not stated)
27.6

Next compound: CN(C)CC1CN(c2ncnc3[nH]ccc23)CCO1 (configuration not stated)
-33.5

Next compound: `c1cnc(OCc2nnc3n2CCN(CC2CC2)C3)nc1`
4.75
